System: Klebsiella pneumoniae
MEASUREMENT_NOTES: Antibacterial activity against Klebsiella pneumoniae ATCC 700603 assessed as reduction in microbial growth after 24 hrs by broth dilution method
Format: functional
MIC under 40 µg/mL gets True, anything at or over 40 µg/mL gets False.

Worked examples follow.
1. C#Cc1ccc(NC(=O)[C@@H](N)Cc2c[nH]c3ccccc23)cc1; False
2. C#Cc1ccc(NC(=O)[C@@H](N)CC(C)C)cc1; True

Prompt line: # check: MIC < 40 µg/mL for CC(C)C(NC(=O)[C@H](N)Cc1ccccc1)C(=O)O (stereo partly specified)
Response line: False

Prompt line: Is MIC strictly under 40 µg/mL for the entry CC(C)[C@H](N)C(=O)Nc1ccc(Cl)cc1 ?
Response line: False

Prompt line: Quick check: MIC of CC(C)[C@H](N)C(=O)Nc1ccc(Br)cc1 under 40 µg/mL?
Response line: False

Prompt line: Does Cc1ccc(NC(=O)[C@@H](N)C(C)C)cc1 have MIC strictly under 40 µg/mL?
Response line: False

Prompt line: Is MIC strictly under 40 µg/mL for the entry C#Cc1cccc(NC(=O)[C@H](N)C(C)C)c1 ?
Response line: True

Prompt line: Strictly below 40 µg/mL: is that where MIC of C[C@H]1COc2c(N3CCN(C)CC3)c(F)cc3c(=O)c(C(=O)O)cn1c23.C[C@H]1COc2c(N3CCN(C)CC3)c(F)cc3c(=O)c(C(=O)O)cn1c23.O sits?
Response line: True

Prompt line: MIC strictly < 40 µg/mL for this molecule? CC(C)[C@H](N)C(=O)Nc1ccc(F)cc1
Response line: False
